molecular target: HIV-1 Env of CM244.ec1 (HIV-1); assay: cell-based or functional assay
measured_quantity: neutralization IC50

{"columns": ["binder", "neutralization IC50"],
 "data": [
  ["CAP256-VRC26.12 (antibody, V domains shown) VH: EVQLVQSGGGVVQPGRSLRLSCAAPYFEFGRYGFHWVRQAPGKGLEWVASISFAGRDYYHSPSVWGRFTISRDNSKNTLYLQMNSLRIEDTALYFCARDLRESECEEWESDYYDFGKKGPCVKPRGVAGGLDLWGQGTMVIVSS VL: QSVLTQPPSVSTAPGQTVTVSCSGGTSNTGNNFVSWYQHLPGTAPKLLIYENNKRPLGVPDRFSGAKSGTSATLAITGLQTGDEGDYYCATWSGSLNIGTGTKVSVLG", "> 50 µg/mL"]
]}

As a next step, examine the binder that follows.
The recorded neutralization IC50 for entry CAP256-VRC26.06 (antibody, V domains shown) VH: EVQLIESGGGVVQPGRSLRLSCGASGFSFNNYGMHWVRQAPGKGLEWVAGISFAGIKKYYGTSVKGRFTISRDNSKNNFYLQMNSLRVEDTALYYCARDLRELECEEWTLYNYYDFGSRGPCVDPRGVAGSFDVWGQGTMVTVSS VL: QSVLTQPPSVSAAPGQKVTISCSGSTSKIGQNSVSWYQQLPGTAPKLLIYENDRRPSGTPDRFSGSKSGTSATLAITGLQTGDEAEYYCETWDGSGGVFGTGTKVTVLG equals > 50 µg/mL
